Values from patent US20100273787A1

target.or.test.system: KAT II (partially purified rat liver enzyme) (Rattus norvegicus, UniProt Q64602)
Sequence (Q64602 30-425): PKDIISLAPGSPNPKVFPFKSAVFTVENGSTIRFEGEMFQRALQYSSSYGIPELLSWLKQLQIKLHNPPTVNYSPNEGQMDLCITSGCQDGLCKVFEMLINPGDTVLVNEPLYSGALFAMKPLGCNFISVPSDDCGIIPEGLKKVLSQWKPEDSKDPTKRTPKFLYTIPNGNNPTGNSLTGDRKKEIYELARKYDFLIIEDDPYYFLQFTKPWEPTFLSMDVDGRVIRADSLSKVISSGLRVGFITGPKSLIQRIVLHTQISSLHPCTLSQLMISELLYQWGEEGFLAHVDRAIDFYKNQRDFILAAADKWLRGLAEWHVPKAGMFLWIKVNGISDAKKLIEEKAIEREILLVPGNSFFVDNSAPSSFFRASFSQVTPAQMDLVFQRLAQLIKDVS
recorded.metric: pIC50
# pIC50 is unitless: minus log10 of the molar concentration; print number only

Ask | What does the record list as pIC50 for C[C@H]1COc2c(N3CCN(N)CC3)c(F)cc3c(=O)c(C(=O)O)cn1c23.O=C(O)C(F)(F)F [Compound (A), trifluoroacetate] ?
Reply | 5.70
